Numbers sourced from ChEMBL document CHEMBL4689842.

Tested on: Fibroblast
assay_overview: Multiplex assay against human fibroblast
Type: toxicity, cell-based
condition_notes: 12 h, 1 µM, compound concentration 1 uM, replicate 2
# Population Apoptotic (%) values compiled below
A bare number is not enough; add the unit after it.

molecule	Population Apoptotic (%)
CCCS(=O)(=O)c1nc(NC2CC2)cc(-c2ccc3c(ccn3C3CC(C)(C)NC(C)(C)C3)c2)n1	38%
COC(=N)c1nc2ccc3ncnc(Nc4ccc(OC)cc4F)c3c2s1	28%
CCc1cccc(CC)c1NC(=O)c1nn(C)c2c1CCc1cnc(Nc3ccc(C(=O)NC4CCN(C)CC4)cc3OC(F)(F)F)nc1-2	40%
CCCS(=O)(=O)Nc1ccc(F)c(C(=O)c2c[nH]c3ncc(Cl)cc23)c1F	28%
CCn1c(=O)c(-c2ccc(-c3cncs3)cc2Cl)cc2cnc(Nc3ccc(N4CCN(C)CC4)cc3)nc21	75%
Cc1cn(-c2cc(NC(=O)c3ccc(C)c(Nc4nccc(-c5cccnc5)n4)c3)cc(C(F)(F)F)c2)cn1	25%

Query: What Population Apoptotic (%) value was documented for this molecule, NC(=O)c1cccc(-c2cc(Nc3ccc(OC(F)(F)F)cc3)ncn2)c1 ?
Result: 20%

Query: Recorded Population Apoptotic (%) of Cl.O=c1c2cccn2c2ccccc2n1CCCN1CCC(c2ccc(Cl)cc2)CC1 , please.
Result: 60%

Query: Query (molecule): CCc1cccc(CC)c1NC(=O)c1nn(C)c2c1CCc1cnc(Nc3ccc(N4CCN(C)CC4)cc3OC)nc1-2 ; field requested: Population Apoptotic (%)
Result: 50%

Query: Population Apoptotic (%) for CCOc1cc2ncc(C#N)c(Nc3ccc(OCc4ccccn4)c(Cl)c3)c2cc1NC(=O)/C=C/CN(C)C ?
Result: 11%

Query: Would you kindly share the measured Population Apoptotic (%) for CN1CCC(=C2c3ccccc3CC(=O)c3sccc32)CC1.O=C(O)/C=C/C(=O)O [KETOTIFEN FUMARATE] ?
Result: 75%

Query: Given Cc1cc(C)c(S(=O)(=O)N(Cc2ccc(-c3cccc(S(C)(=O)=O)c3)cc2)Cc2ccc(C(F)(F)F)o2)c(C)c1 , state its recorded Population Apoptotic (%).
Result: 66%
